src = ChEMBL document CHEMBL1145581

# assaySystem: P-gp (ABCB1) (Homo sapiens, UniProt P08183)
# Sequence (P08183 whole entry): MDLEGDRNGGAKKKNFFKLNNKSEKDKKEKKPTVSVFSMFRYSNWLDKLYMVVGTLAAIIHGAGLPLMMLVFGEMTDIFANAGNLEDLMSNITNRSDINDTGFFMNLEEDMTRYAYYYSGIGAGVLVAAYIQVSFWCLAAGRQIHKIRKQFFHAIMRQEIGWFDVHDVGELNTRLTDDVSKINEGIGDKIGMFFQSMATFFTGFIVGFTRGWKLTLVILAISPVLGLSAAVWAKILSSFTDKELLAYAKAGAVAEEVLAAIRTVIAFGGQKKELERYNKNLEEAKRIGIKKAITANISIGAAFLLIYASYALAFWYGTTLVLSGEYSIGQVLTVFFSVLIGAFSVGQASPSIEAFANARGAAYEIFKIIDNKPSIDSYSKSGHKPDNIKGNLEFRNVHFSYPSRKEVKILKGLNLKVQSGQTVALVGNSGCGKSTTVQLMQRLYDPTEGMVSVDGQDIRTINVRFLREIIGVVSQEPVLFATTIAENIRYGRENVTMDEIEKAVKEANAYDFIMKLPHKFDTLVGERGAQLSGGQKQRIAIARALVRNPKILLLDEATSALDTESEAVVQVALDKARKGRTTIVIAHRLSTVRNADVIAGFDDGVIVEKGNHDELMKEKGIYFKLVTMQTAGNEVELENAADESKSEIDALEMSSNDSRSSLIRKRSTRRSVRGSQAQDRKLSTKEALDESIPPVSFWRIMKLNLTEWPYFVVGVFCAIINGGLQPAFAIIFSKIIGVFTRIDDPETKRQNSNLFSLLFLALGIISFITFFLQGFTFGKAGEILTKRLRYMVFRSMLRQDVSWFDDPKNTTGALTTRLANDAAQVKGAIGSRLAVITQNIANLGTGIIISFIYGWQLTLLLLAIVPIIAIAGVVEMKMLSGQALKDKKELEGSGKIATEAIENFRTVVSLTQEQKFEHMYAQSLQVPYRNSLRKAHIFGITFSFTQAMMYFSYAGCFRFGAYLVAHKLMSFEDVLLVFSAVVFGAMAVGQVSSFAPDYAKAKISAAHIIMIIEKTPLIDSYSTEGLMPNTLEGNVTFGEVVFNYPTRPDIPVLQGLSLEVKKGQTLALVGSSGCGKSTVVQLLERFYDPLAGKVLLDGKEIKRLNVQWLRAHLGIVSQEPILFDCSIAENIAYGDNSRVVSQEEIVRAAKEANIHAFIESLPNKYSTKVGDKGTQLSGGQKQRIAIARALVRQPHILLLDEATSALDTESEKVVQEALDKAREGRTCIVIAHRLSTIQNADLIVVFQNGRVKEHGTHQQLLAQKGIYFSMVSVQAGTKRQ
# protocol: Inhibition of Pgp-mediated multidrug resistance activity in human MCF7/ADM cells assessed as Rh123 accumulation at 3 umol/L after 30 mins
# Type: cell-based
# condition: probe Rh123
readoutName: inhibition at 0.5 h, 3 µM (%)

>>> print(df.to_string())
                                   molecule                readoutname  recordedresult
0  CCCCCCCCN/C(=N/C#N)N1CCc2cc(OC)c(OC)cc2C1Cc1ccc(OC)c(OC)c1 (stereo unspecified)  inhibition at 0.5 h, 3 µM            60.5
